Target: T1, human TGFβ3 (human, UniProt P10600 301-412)
T1 sequence: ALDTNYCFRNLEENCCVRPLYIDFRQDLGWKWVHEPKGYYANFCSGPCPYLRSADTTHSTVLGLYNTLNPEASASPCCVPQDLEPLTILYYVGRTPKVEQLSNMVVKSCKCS
Assay: Biacore off-rate vs wt GC1008, 50 nM
# kd var/kd wt per record follows
Respond numerically, and do not add a unit to the figure.

P53I (antibody, V domains shown, GC1008 IgG4 variant) VH: QVQLVQSGAEVKKPGSSVKVSCKASGYTFSSNVISWVRQAPGQGLEWMGGVIIIVDIANYAQRFKGRVTITADESTSTTYMELSSLRSEDTAVYYCASTLGLVLDAMDYWGQGTLVTVSS VL: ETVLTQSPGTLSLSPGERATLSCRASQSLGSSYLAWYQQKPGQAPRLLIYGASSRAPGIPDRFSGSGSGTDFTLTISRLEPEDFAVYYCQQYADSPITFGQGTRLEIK	1.3

We now examine a further binder.
Exercise: Request the reported kd var/kd wt associated with D56E (antibody, V domains shown, GC1008 IgG4 variant) VH: QVQLVQSGAEVKKPGSSVKVSCKASGYTFSSNVISWVRQAPGQGLEWMGGVIPIVEIANYAQRFKGRVTITADESTSTTYMELSSLRSEDTAVYYCASTLGLVLDAMDYWGQGTLVTVSS VL: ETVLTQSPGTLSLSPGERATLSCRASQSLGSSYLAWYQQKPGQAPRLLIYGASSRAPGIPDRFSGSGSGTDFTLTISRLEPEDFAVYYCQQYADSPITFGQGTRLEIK
Solution: 0.9
